tested on: NF-κB; test: NF-κB assay for inflammation (nuclear translocation of NF-κB, immunocytochemistry, PCC); settings: HeLa cells, 160 nM, 2 h; PCC between nuclear and cytoplasmic fraction of NF-κB
Documented Inflammation (PCC) 160 nM across a set of compounds
Give only the figure.

- COMPOUND: "OB(O)c1cncc(Br)c1"
  Inflammation (PCC) 160 nM: 0.2913
- COMPOUND: "OB(O)c1ccc(Br)nc1"
  Inflammation (PCC) 160 nM: 0.1446
- COMPOUND: "NC(=O)c1cccc(B(O)O)c1"
  Inflammation (PCC) 160 nM: 0.1748
- COMPOUND: "O=Cc1ccoc1B(O)O"
  Inflammation (PCC) 160 nM: 0.08621

response.value for OB(O)c1ccc(-c2ccccc2)s1 (field: Inflammation (PCC) 160 nM) = 0.1187

Record summary for OB(O)/C=C/c1ccccc1 [trans-2-Phenylvinylboronic acid] : reported Inflammation (PCC) 160 nM = 0

Reported Inflammation (PCC) 160 nM ( O=C(Cl)c1ccc(B2OB(c3ccc(C(=O)Cl)cc3)OB(c3ccc(C(=O)Cl)cc3)O2)cc1 [4-chlorocarbonylphenylboronic anhydride] ) = 0.09826

Entry OB(O)c1cccs1 — recorded Inflammation (PCC) 160 nM = 0

Noted for CN(C)S(=O)(=O)c1ccccc1B(O)O : its Inflammation (PCC) 160 nM reads 0.03422
